Reference source: ChEMBL document CHEMBL3988442

Each entry below carries its recorded Percent Effect.
tested on: Wolbachia pipientis; assay: Anti-Wolbachia Cell-Based Screen; format: functional; design: scale not given: in the data most compounds retested in dose-response had high values; details: 5 µM
In all, about 48,000 compounds went through this assay and about 13,000 (27%) showed an effect of 50% or more. This is one part of the list.
Write down the numeric answer in % and omit the unit.

- CC(C)(C)C(=O)NCCC(=O)NS(=O)(=O)c1cccc(C#N)c1: -5.738
- Cc1ccc(-n2nnc(C(=O)NS(C)(=O)=O)c2C2CC2)cc1: -4.729
- NC(=O)CCn1nnc(-c2cc3ccccc3o2)n1: 8.655
- Cc1ccc(CCN2CCC(N(C)Cc3noc(C4CC4)n3)C2)cc1 (stereo not drawn): 33.43
- O=C(c1ccoc1)N1CCc2ncc(Cn3cccn3)n2CC1: 85.84

For the next question, use this compound.
Given Cc1[nH]ncc1C(C)NCc1cccnc1 (stereo not drawn) , state its recorded Percent Effect.
-9.734
